- System tested: BnWRKY15 (Brassica napus, UniProt A0A291B474 1-319)
- Sequence (A0A291B474 entry or part of it): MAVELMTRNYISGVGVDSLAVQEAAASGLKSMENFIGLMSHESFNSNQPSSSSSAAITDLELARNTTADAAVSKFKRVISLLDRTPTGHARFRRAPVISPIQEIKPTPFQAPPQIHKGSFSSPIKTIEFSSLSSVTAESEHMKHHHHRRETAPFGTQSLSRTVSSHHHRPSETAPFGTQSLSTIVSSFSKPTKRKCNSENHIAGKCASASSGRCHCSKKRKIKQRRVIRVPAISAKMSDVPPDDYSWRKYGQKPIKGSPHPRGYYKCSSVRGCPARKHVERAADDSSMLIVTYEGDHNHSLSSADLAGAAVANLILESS
- Assay details: EMSA; Beyotime EMSA binding buffer (composition, pH not stated), 40 nM Cy5 DNA probe, room temperature; 6% native PAGE in ice water bath
- Settings: protein: recombinant; tags: 6xHis (pET-32a fusion); label: Cy5

- Binder: "W1m1 probe (dsDNA) DNA 1: TCAAAGTCTAGGACACATGGTCTGACCATCTCCTCTCCTCCTCTTCTTCTCCATCTTCTAATTTTTTCAACGGTCAAACTT DNA 2: AAGTTTGACCGTTGAAAAAATTAGAAGATGGAGAAGAAGAGGAGGAGAGGAGATGGTCAGACCATGTGTCCTAGACTTTGA"
  binding result: "binds"
- Binder: "W1m4 probe (dsDNA) DNA 1: TCAAAATCAAGGACACATGGTCTGACCATCTCCTCTCCTCCTCTTCTTCTCCATCTTCTAATTTTTTCAACGGTCAAACTT DNA 2: AAGTTTGACCGTTGAAAAAATTAGAAGATGGAGAAGAAGAGGAGGAGAGGAGATGGTCAGACCATGTGTCCTTGATTTTGA"
  binding result: "binds"
